System: HEp-2 cells
Assay: Cytotoxicity in parallel to the RSV-A assay (no virus), ATPlite readout
Format: cell-based, human
Experimental: Following extensive parameter testing, the final assay is run as follows: HEp-2 cells are seeded into the inner 60 wells of a 96-well plate at 8,000 cells per well in a volume of 50 μL using Growth Media (DMEM without phenol red, 1% L-Glut, 1% Penn/Strep, 1% nonessential amino acids, 10% heat-inactivated FBS). […] The MOI is calculated using the PFU/mL, or TCID50 if unavailable. […] Assay plates are read using the Envision luminometer. […]
Task for the reader: assign each of the following compounds its reported CC50.

# lookup: O=C1Nc2ccccc2C(c2ccccc2)=NC1Nc1nnc(-c2ccnc(F)c2)o1 (centres unmarked) [Example 55] on HEp-2 cells, CC50 = > 50 µM

The reported CC50 value, HEp-2 cells, for O=C1Nc2ccccc2C(c2ccccc2)=NC1Nc1nc2ccc(F)cc2o1 (centres unmarked) [Example 103] reads 10 to 50 µM

Given the compound O=C1Nc2ccccc2C(c2ccccc2)=NC1Nc1nnco1 (centres unmarked) [Example 79] and test system HEp-2 cells, the measured CC50 is > 50 µM

Readout CC50 for Cc1nnc(NC2N=C(c3ccccc3)c3ccccc3NC2=O)o1 (centres unmarked) [Example 18] , test system HEp-2 cells, was > 50 µM

Field CC50 (system: HEp-2 cells) for entry Cn1cc(-c2nnc(NC3N=C(c4ccccc4)c4ccccc4NC3=O)o2)cn1 (centres unmarked) [Example 66] = > 50 µM

For the compound CS(=O)(=O)c1ccc(-c2nnc(NC3N=C(c4ccccc4)c4ccccc4NC3=O)o2)cc1 (centres unmarked) [Example 27] , the measured CC50 on HEp-2 cells was > 50 µM

So the reported CC50 for O=C1Nc2ccccc2C(c2ccccc2)=N[C@@H]1Nc1nnc(-c2ccco2)o1 [Example 10a] , on HEp-2 cells, turned out to be > 50 µM

I looked up COc1ccc(-c2nnc(NC3N=C(c4ccccc4)c4ccccc4NC3=O)o2)nc1 (centres unmarked) [Example 51] and its CC50 for HEp-2 cells was > 50 µM

Entry COc1ccc(-c2nnc(NC3N=C(c4ccccc4)c4ccccc4NC3=O)o2)cc1 (centres unmarked) [Example 8] ; assay system HEp-2 cells; CC50 recorded at > 50 µM

The compound O=C1Nc2ccccc2C(c2ccccc2)=NC1Nc1ncc(-c2ccccc2)o1 (centres unmarked) [Example 84] , when measured on HEp-2 cells, yielded CC50 of 10 to 50 µM

Query O=C1Nc2ccccc2C(c2ccccc2)=NC1Nc1nnc(C2CC2)o1 (centres unmarked) [Example 5] on HEp-2 cells; CC50 returned: > 50 µM

The compound O=C1Nc2ccccc2C(c2ccccc2)=NC1Nc1nnc(-c2ccc(Cl)o2)o1 (centres unmarked) [Example 20] , tested on HEp-2 cells, showed CC50 of > 50 µM

Value (CC50, HEp-2 cells) for record COc1ccccc1-c1nnc(NC2N=C(c3ccccc3)c3ccccc3NC2=O)o1 (centres unmarked) [Example 9] = > 50 µM

The measured CC50 that O=C1Nc2ccccc2C(c2ccccc2)=NC1Nc1nnc(-c2cnco2)o1 (centres unmarked) [Example 75] showed for HEp-2 cells is > 50 µM

The value of CC50 recorded for Cc1ccc2oc(NC3N=C(c4ccccc4)c4ccccc4NC3=O)nc2c1 (centres unmarked) [Example 106] when tested on HEp-2 cells reads < 10 µM

Test item O=C1Nc2ccccc2C(c2ccccc2)=NC1Nc1nc2ccccc2s1 (centres unmarked) [Example 101] ; HEp-2 cells; reported CC50 was 10 to 50 µM

Entry Cc1ccc(-c2nnc(NC3N=C(c4ccccc4)c4ccccc4NC3=O)o2)s1 (centres unmarked) [Example 19] , tested on HEp-2 cells, has a reported CC50 of > 50 µM

Known value: HEp-2 cells CC50 of the compound O=C1Nc2ccccc2C(c2ccccc2)=NC1Nc1ccnc(-c2ccccc2)n1 (centres unmarked) [Example 96] equals 10 to 50 µM

Fill in: HEp-2 cells CC50 for CN1CCC(c2nnc(NC3N=C(c4ccccc4)c4ccccc4NC3=O)o2)CC1 (centres unmarked) [Example 46] = > 50 µM

// returns CC50 for O=C1Nc2ccccc2C(c2ccccc2)=NC1Nc1nnc(-c2ncco2)o1 (centres unmarked) [Example 70] with HEp-2 cells; value = > 50 µM

Reading of CC50 for O=C1Nc2ccccc2C(c2ccccc2)=NC1Nc1nnc(-c2ccc(-n3cccn3)cc2)o1 (centres unmarked) [Example 36] with HEp-2 cells: 10 to 50 µM

Record CN1CCc2nc(-c3nnc(NC4N=C(c5ccccc5)c5ccccc5NC4=O)o3)sc2C1 (centres unmarked) [Example 44] has HEp-2 cells CC50 equal to > 50 µM

Let me check: O=C1Nc2ccccc2C(c2ccccc2)=N[C@H]1Nc1nnc(-c2ccco2)o1 [Example 10b] , system HEp-2 cells, measured CC50 is < 10 µM

Considering CC(C)Oc1cccc(-c2nnc(NC3N=C(c4ccccc4)c4ccccc4NC3=O)o2)c1 (centres unmarked) [Example 15] , its CC50 with HEp-2 cells was recorded as > 50 µM

Summary line: O=C1Nc2ccccc2C(c2ccccc2)=NC1Nc1nc2ccccc2o1 (centres unmarked) [Example 100] , HEp-2 cells, reported CC50 = 10 to 50 µM

Here O=C1Nc2ccccc2C(c2ccccc2)=NC1Nc1nnc(-c2cccnc2)o1 (centres unmarked) [Example 37] was tested on HEp-2 cells, and its CC50 came to > 50 µM

Hey, HEp-2 cells data for N#Cc1cccc(-c2nnc(NC3N=C(c4ccccc4)c4ccccc4NC3=O)o2)c1 (centres unmarked) [Example 35] : CC50 came out at > 50 µM

Log: HEp-2 cells, compound O=C1Nc2ccccc2C(c2ccccc2)=NC1Nc1nnc(-c2cccc(C(F)(F)F)c2)o1 (centres unmarked) [Example 29] , CC50 = > 50 µM

Param item: O=C1Nc2ccccc2C(c2ccccc2)=NC1Nc1nc(-c2ccccc2)ns1 (centres unmarked) [Example 87] ; param system: HEp-2 cells; output CC50: 10 to 50 µM

CC50 of COc1cccc(-c2nnc(NC3N=C(c4ccccc4)c4ccccc4NC3=O)o2)c1 (centres unmarked) [Example 4] , assay on HEp-2 cells, is > 50 µM

Noted CC50 for N#Cc1cc(-c2nnc(NC3N=C(c4ccccc4)c4ccccc4NC3=O)o2)ccc1F (centres unmarked) [Example 32] , tested on HEp-2 cells: > 50 µM

So the reported CC50 for NS(=O)(=O)c1ccc(-c2nnc(NC3N=C(c4ccccc4)c4ccccc4NC3=O)o2)cc1 (centres unmarked) [Example 31] , on HEp-2 cells, turned out to be > 50 µM

Measured on HEp-2 cells, O=C1Nc2ccccc2C(c2ccccc2)=NC1Nc1nc2ccc(Cl)cc2o1 (centres unmarked) [Example 99] has a documented CC50 of 10 to 50 µM

Reading of CC50 for O=C1Nc2ccccc2C(c2ccccc2)=NC1Nc1nnc(-c2cnccn2)o1 (centres unmarked) [Example 58] with HEp-2 cells: > 50 µM

CC50 for HEp-2 cells with input O=C1Nc2ccccc2C(c2ccccc2)=NC1Nc1nnc(-c2cccnn2)o1 (centres unmarked) [Example 62] equals > 50 µM
